# credit: ChEMBL document CHEMBL3044653

system: Eclipta prostrata; experiment: Post-emergence herbicidal activity against Eclipta prostrata assessed as inhibition at 37.5 g/hectare treated at two-leaf stage by green house assay; format: functional
The label depends only on inhibition at 37.5 g/ha: yes (1) if it is at least 50%, no (0) if it is smaller.

COMPOUND | DISCRETE LABEL
CC1(C)COP(=O)(C(OC(=O)COc2ccc(Cl)cc2Cl)c2ccc(Cl)cc2)OC1 (centres undefined) | no (0)

Does inhibition at 37.5 g/ha meet or surpass 50% for CC(C)C(OC(=O)COc1ccc(Cl)cc1Cl)P1(=O)OCC(C)(C)CO1 (centres undefined) ?
no (0)

Does inhibition at 37.5 g/ha meet or surpass 50% for CC1(C)COP(=O)(C(OC(=O)COc2ccc(Cl)cc2Cl)c2ccc(Cl)cc2Cl)OC1 (centres undefined) ?
no (0)

Does inhibition at 37.5 g/ha meet or surpass 50% for CC1(C)COP(=O)(C(OC(=O)COc2ccc(Cl)cc2Cl)c2ccco2)OC1 (centres undefined) ?
yes (1)

Does inhibition at 37.5 g/ha meet or surpass 50% for CCCCC(OC(=O)COc1ccc(Cl)cc1Cl)P1(=O)OCC(C)(C)CO1 (centres undefined) ?
no (0)

Does inhibition at 37.5 g/ha meet or surpass 50% for COP(=O)(OC)C(C)OC(=O)COc1ccc(Cl)cc1Cl (centres undefined) [CLACYFOS] ?
yes (1)

Does inhibition at 37.5 g/ha meet or surpass 50% for Cc1cc(Cl)ccc1OCC(=O)OC(C)P1(=O)OCC(C)(C)CO1 (centres undefined) ?
yes (1)

---

test system: Glycine max; assay: Toxicity in Glycine max (soybean) plant assessed as inhibition at 150 g/hectare; type: organism-based; settings: in vivo
VALUE KIND: inhibition (INH) (%)
Write the value in % as a bare number.

Use these answered entries as a reference point.
COMPOUND | SYSTEM | inhibition (INH) (%)
CC(OC(=O)COc1ccc(Cl)cc1Cl)P1(=O)OCC(C)(C)CO1 (stereo not drawn) | Glycine max | 30
CC(C)C(OC(=O)COc1ccc(Cl)cc1Cl)P1(=O)OCC(C)(C)CO1 (stereo not drawn) | Glycine max | 30
CC1(C)COP(=O)(C(OC(=O)COc2ccc(Cl)cc2Cl)c2ccc(Cl)cc2Cl)OC1 (stereo not drawn) | Glycine max | 30
CCCCC(OC(=O)COc1ccc(Cl)cc1Cl)P1(=O)OCC(C)(C)CO1 (stereo not drawn) | Glycine max | 30
Cc1cc(Cl)ccc1OCC(=O)OC(C)P1(=O)OCC(C)(C)CO1 (stereo not drawn) | Glycine max | 20
CC1(C)COP(=O)(C(OC(=O)COc2ccc(Cl)cc2Cl)c2ccccc2)OC1 (stereo not drawn) | Glycine max | 30

GET /value?item= CC1(C)COP(=O)(C(OC(=O)COc2ccc(Cl)cc2Cl)c2ccc(Cl)cc2)OC1 (stereo not drawn) &field=inhibition (INH) returns 20

GET /value?item= CC1(C)COP(=O)(C(OC(=O)COc2ccc(Cl)cc2Cl)c2ccco2)OC1 (stereo not drawn) &field=inhibition (INH) returns 30

---

tested on: Brassica juncea; experiment: Post-emergence herbicidal activity against Brassica juncea assessed as inhibition at 75 g/hectare by green house assay; assay type: functional
VALUE KIND: inhibition at 75 g/ha (%)
Write the value in % as a bare number.

Use these answered entries as a reference point.
MOLECULE | inhibition at 75 g/ha / %
CC1(C)COP(=O)(C(OC(=O)COc2ccc(Cl)cc2Cl)c2ccco2)OC1 (centres undefined) | 90
CC(OC(=O)COc1ccc(Cl)cc1Cl)P1(=O)OCC(C)(C)CO1 (centres undefined) | 95
Cc1cc(Cl)ccc1OCC(=O)OC(C)P1(=O)OCC(C)(C)CO1 (centres undefined) | 100

Attention now shifts to the item below.
GET /value?item= O=C(O)CNCP(=O)(O)O [GLYPHOSATE] &field=inhibition at 75 g/ha returns 30

---

tested on: Triticum aestivum; assay: Toxicity in Triticum aestivum (wheat) plant assessed as inhibition at 150 g/hectare; type: organism-based; conditions: in vivo
Reported inhibition (INH) values are given for each entry in this list.
Write the value in % as a bare number.

GET /value?item= CC(C)C(OC(=O)COc1ccc(Cl)cc1Cl)P1(=O)OCC(C)(C)CO1 (centres undefined) &field=inhibition (INH) returns 10

GET /value?item= CC1(C)COP(=O)(C(OC(=O)COc2ccc(Cl)cc2Cl)c2ccccc2)OC1 (centres undefined) &field=inhibition (INH) returns 10

GET /value?item= CC1(C)COP(=O)(C(OC(=O)COc2ccc(Cl)cc2Cl)c2ccc(Cl)cc2Cl)OC1 (centres undefined) &field=inhibition (INH) returns 0

GET /value?item= CCCCC(OC(=O)COc1ccc(Cl)cc1Cl)P1(=O)OCC(C)(C)CO1 (centres undefined) &field=inhibition (INH) returns 10

---

Reported inhibition at 150 g/ha values are given for each entry in this list.
test system: Abutilon theophrasti; assay: Post-emergence herbicidal activity against Abutilon theophrasti (velvetleaf) assessed as inhibition at 150 g/hectare treated at two-leaf stage by green house assay; format: functional
Write the value in % as a bare number.

COMPOUND | UNIT STRING | REPORTED VALUE
CC1(C)COP(=O)(C(OC(=O)COc2ccc(Cl)cc2Cl)c2ccc(Cl)cc2Cl)OC1 (centres undefined) | % | 95

GET /value?item= Cc1cc(Cl)ccc1OCC(=O)OC(C)P1(=O)OCC(C)(C)CO1 (centres undefined) &field=inhibition at 150 g/ha returns 100

GET /value?item= COP(=O)(OC)C(C)OC(=O)COc1ccc(Cl)cc1Cl (centres undefined) &field=inhibition at 150 g/ha returns 100

GET /value?item= CC1(C)COP(=O)(C(OC(=O)COc2ccc(Cl)cc2Cl)c2ccco2)OC1 (centres undefined) &field=inhibition at 150 g/ha returns 90

---

Reported inhibition at 150 g/ha values are given for each entry in this list.
system: Echinochloa crus-galli; assay: Post-emergence herbicidal activity against Echinochloa crus-galli (barnyard grass) assessed as inhibition at 150 g/hectare treated at one-leaf stage by green house assay; type: functional
Number first, unit second: that is the form wanted.

Use these answered entries as a reference point.
COMPOUND | SYSTEM | inhibition at 150 g/ha
CC1(C)COP(=O)(C(OC(=O)COc2ccc(Cl)cc2Cl)c2ccc(Cl)cc2Cl)OC1 (configuration not stated) | Echinochloa crus-galli | 0%
Cc1cc(Cl)ccc1OCC(=O)OC(c1ccco1)P1(=O)OCC(C)(C)CO1 (configuration not stated) | Echinochloa crus-galli | 60%
CC(OC(=O)COc1ccc(Cl)cc1)P1(=O)OCC(C)(C)CO1 (configuration not stated) | Echinochloa crus-galli | 10%
CC1(C)COP(=O)(C(OC(=O)COc2ccc(Cl)cc2Cl)c2ccco2)OC1 (configuration not stated) | Echinochloa crus-galli | 30%
CCCCC(OC(=O)COc1ccc(Cl)cc1Cl)P1(=O)OCC(C)(C)CO1 (configuration not stated) | Echinochloa crus-galli | 0%

GET /value?item= Cc1cc(OCC(=O)OC(c2ccco2)P2(=O)OCC(C)(C)CO2)ccc1Cl (configuration not stated) &field=inhibition at 150 g/ha returns 0%

GET /value?item= CC1(C)COP(=O)(C(OC(=O)COc2ccccc2Cl)c2ccccc2)OC1 (configuration not stated) &field=inhibition at 150 g/ha returns 0%

---

test system: Eclipta prostrata; experiment: Post-emergence herbicidal activity against Eclipta prostrata assessed as inhibition at 150 g/hectare treated at two-leaf stage by green house assay; type: functional
Reported inhibition at 150 g/ha values are given for each entry in this list.
Write the value in % as a bare number.

Use these answered entries as a reference point.
COMPOUND | REPORTED VALUE
COP(=O)(OC)C(C)OC(=O)COc1ccc(Cl)cc1Cl (centres undefined) | 90
Cc1cc(OCC(=O)OC(c2ccccc2)P2(=O)OCC(C)(C)CO2)ccc1Cl (centres undefined) | 60
CC1(C)COP(=O)(C(OC(=O)COc2ccc(Cl)cc2Cl)c2ccccc2)OC1 (centres undefined) | 80

GET /value?item= Cc1cc(OCC(=O)OC(C)P2(=O)OCC(C)(C)CO2)ccc1Cl (centres undefined) &field=inhibition at 150 g/ha returns 60

GET /value?item= CC1(C)COP(=O)(C(OC(=O)COc2ccccc2Cl)c2ccccc2)OC1 (centres undefined) &field=inhibition at 150 g/ha returns 65

GET /value?item= CC(OC(=O)COc1ccccc1Cl)P1(=O)OCC(C)(C)CO1 (centres undefined) &field=inhibition at 150 g/ha returns 75

GET /value?item= CC(OC(=O)COc1ccc(Cl)cc1)P1(=O)OCC(C)(C)CO1 (centres undefined) &field=inhibition at 150 g/ha returns 60

---

system: Eclipta prostrata; assay: Post-emergence herbicidal activity against Eclipta prostrata assessed as inhibition at 150 g/hectare treated at two-leaf stage by green house assay; type: functional
The label depends only on inhibition at 150 g/ha: 1.0 if it is at least 70%, 0.0 if it is smaller.

COMPOUND | DISCRETE LABEL
CC1(C)COP(=O)(C(OC(=O)COc2ccc(Cl)cc2)c2ccco2)OC1 (configuration not stated) | 0.0
CC(OC(=O)COc1ccc(Cl)cc1Cl)P1(=O)OCC(C)(C)CO1 (configuration not stated) | 1.0
CCCCC(OC(=O)COc1ccc(Cl)cc1Cl)P1(=O)OCC(C)(C)CO1 (configuration not stated) | 1.0
COP(=O)(OC)C(C)OC(=O)COc1ccc(Cl)cc1C (configuration not stated) | 0.0

Okay, now this compound:
Does inhibition at 150 g/ha meet or surpass 70% for Cc1cc(OCC(=O)OC(c2ccco2)P2(=O)OCC(C)(C)CO2)ccc1Cl (configuration not stated) ?
0.0
